# Test system: Enterobacter cloacae
# assay-procedure: Antibacterial activity against Enterobacter cloacae ATCC 13047 by standard serial agar dilution method
# Format: functional
readout-type: MIC (µg/mL)

> print(dat)
                            chemical.string  value.units  observed.value
1  C[C@H](O/N=C(\C(=O)N[C@@H]1C(=O)N2C(C(=O)[O-])=C(C[n+]3cccc4[nH]ccc43)CS[C@H]12)c1nc(N)sc1Cl)C(=O)O        µg/mL            0.25
2  CNCCCn1c(N)cc2c1ccc[n+]2CC1=C(C(=O)[O-])N2C(=O)[C@@H](NC(=O)/C(=N\O[C@@H](C)C(=O)O)c3nc(N)sc3Cl)[C@H]2SC1        µg/mL             0.5
3  CNCCCc1cc[n+](CC2=C(C(=O)[O-])N3C(=O)[C@@H](NC(=O)/C(=N\O[C@@H](C)C(=O)O)c4nc(N)sc4Cl)[C@H]3SC2)cc1        µg/mL               1
4  C[C@H](O/N=C(\C(=O)N[C@@H]1C(=O)N2C(C(=O)[O-])=C(C[n+]3ccc(NC4CNC4)cc3)CS[C@H]12)c1nc(N)sc1Cl)C(=O)O        µg/mL             0.5
5  C[C@H](O/N=C(\C(=O)N[C@@H]1C(=O)N2C(C(=O)[O-])=C(C[n+]3cccc4c3ccn4CC(=O)O)CS[C@H]12)c1nc(N)sc1Cl)C(=O)O        µg/mL               1

###

# Tested on: Enterobacter cloacae
# assay-procedure: Antibacterial activity against Enterobacter cloacae ATCC 13047 by standard serial agar dilution method
# Format: functional
// MIC lookup, one value per entry
readout-type: MIC (µg/mL)

> print(dat)
                            chemical.string  readout.type  observed.value
1  C[C@H](O/N=C(\C(=O)N[C@@H]1C(=O)N2C(C(=O)[O-])=C(C[n+]3cccc4c3nc(N)n4CCNCCO)CS[C@H]12)c1nc(N)sc1Cl)C(=O)O           MIC             0.5
2  CNCCn1ccc2c[n+](CC3=C(C(=O)[O-])N4C(=O)[C@@H](NC(=O)/C(=N\O[C@@H](C)C(=O)O)c5nc(N)sc5Cl)[C@H]4SC3)ccc21           MIC             0.5
3  CNCCn1nnc2c1ccc[n+]2CC1=C(C(=O)[O-])N2C(=O)[C@@H](NC(=O)/C(=N\O[C@@H](C)C(=O)O)c3nc(N)sc3Cl)[C@H]2SC1           MIC             0.5

###

# System: Staphylococcus aureus
# assay-procedure: Antibacterial activity against Staphylococcus aureus Smith by standard serial agar dilution method
# Type: functional
// MIC lookup, one value per entry
readout-type: MIC

> print(dat)
                            chemical.string  observed.value
1  C[C@H](O/N=C(\C(=O)N[C@@H]1C(=O)N2C(C(=O)[O-])=C(C[n+]3cccc4c3ccn4CCOC(N)=O)CS[C@H]12)c1nc(N)sc1Cl)C(=O)O         2 µg/mL
2  CNCCCn1c(N)cc2c1ccc[n+]2CC1=C(C(=O)[O-])N2C(=O)[C@@H](NC(=O)/C(=N\O[C@@H](C)C(=O)O)c3nc(N)sc3Cl)[C@H]2SC1         1 µg/mL
3  C[C@H](O/N=C(\C(=O)N[C@@H]1C(=O)N2C(C(=O)[O-])=C(C[n+]3cccc4c3nc(N)n4CCNCCO)CS[C@H]12)c1nc(N)sc1Cl)C(=O)O         4 µg/mL
4  CC(=O)NCCn1ccc2c1ccc[n+]2CC1=C(C(=O)[O-])N2C(=O)[C@@H](NC(=O)/C(=N\O[C@@H](C)C(=O)O)c3nc(N)sc3Cl)[C@H]2SC1         4 µg/mL
5  CNCCn1nnc2c1ccc[n+]2CC1=C(C(=O)[O-])N2C(=O)[C@@H](NC(=O)/C(=N\O[C@@H](C)C(=O)O)c3nc(N)sc3Cl)[C@H]2SC1         4 µg/mL

These data points were gathered from ChEMBL document CHEMBL1144019.
